# EXPERIMENT NOTES: qHTS for Activators of Parkin Expression: LOPAC Validation Assay (FLuc Reporter) (AID 720573)
# TEST PARAMETERS: Cell line, PRKN promoter firefly luciferase reporter; series mostly up to 46.1 µM
Results filed as inconclusive are left out. Calls of active or inactive are those of the source. Calls follow the shape of the dose curve; as a rule, active = well fitted activation curve with a large enough effect; inconclusive = small, poorly fitted or top-dose-only effect; inactive = no such curve, though single readings can be large or run the other way.
A correct response names exactly one class from active, inactive

COMPOUND	CLASS
CC1(C)NC(=O)N(c2ccc([N+](=O)[O-])c(C(F)(F)F)c2)C1=O	inactive
Cc1cccc(C#Cc2ccccc2)n1	active
O=C(O)c1cccnc1Nc1cccc(C(F)(F)F)c1	inactive
CC(C)c1ccc2c(c1)c(SC(C)(C)C)c(CC(C)(C)C(=O)O)n2Cc1ccc(Cl)cc1	inactive
COc1ccccc1N1CCN(CCN(C(=O)C2CCCCC2)c2ccccn2)CC1	inactive
Oc1ccc(-c2nc(-c3ccc(F)cc3)c(-c3ccncc3)[nH]2)cc1	inactive
CC1(C)C(=O)N(CCN2CCC(C(=O)c3ccc(F)cc3)CC2)c2ccccc21	inactive
O=c1c(O)c(-c2ccc(O)cc2O)oc2cc(O)cc(O)c12	inactive
COc1ccc2cc([C@H](C)C(=O)O)ccc2c1	inactive
CC(=O)N1CCN(c2ccc(OC[C@H]3CO[C@](Cn4ccnc4)(c4ccc(Cl)cc4Cl)O3)cc2)CC1	inactive

We next turn to a different molecule, shown below.
Returns: the outcome recorded for Cc1cc(O)c2c(c1)C(=O)c1cc(O)cc(O)c1C2=O in this assay.
inactive
